test: Oral bioavailability in BALB-C mouse at 9 mg/kg by LC-MS/MS analysis; assay type: ADME, organism-based; conditions: in vivo
endpoint: bioavailability (%)

- CS(=O)(=O)N1CCN(Cc2cc3c(N4CCOCC4)nc(-c4cnc(N)nc4)cn3n2)CC1: 29.5

* * *

target: UniProt P08581; assay: Inhibition of recombinant human N-terminal GST/His6-tagged MET (K956 to S1390 residues) expressed in Sf9 insect cells at 1 uM using TRK-C-derived peptide as substrate by filter binding method relative to control
Sequence (P08581 whole entry, the tested form may be a part): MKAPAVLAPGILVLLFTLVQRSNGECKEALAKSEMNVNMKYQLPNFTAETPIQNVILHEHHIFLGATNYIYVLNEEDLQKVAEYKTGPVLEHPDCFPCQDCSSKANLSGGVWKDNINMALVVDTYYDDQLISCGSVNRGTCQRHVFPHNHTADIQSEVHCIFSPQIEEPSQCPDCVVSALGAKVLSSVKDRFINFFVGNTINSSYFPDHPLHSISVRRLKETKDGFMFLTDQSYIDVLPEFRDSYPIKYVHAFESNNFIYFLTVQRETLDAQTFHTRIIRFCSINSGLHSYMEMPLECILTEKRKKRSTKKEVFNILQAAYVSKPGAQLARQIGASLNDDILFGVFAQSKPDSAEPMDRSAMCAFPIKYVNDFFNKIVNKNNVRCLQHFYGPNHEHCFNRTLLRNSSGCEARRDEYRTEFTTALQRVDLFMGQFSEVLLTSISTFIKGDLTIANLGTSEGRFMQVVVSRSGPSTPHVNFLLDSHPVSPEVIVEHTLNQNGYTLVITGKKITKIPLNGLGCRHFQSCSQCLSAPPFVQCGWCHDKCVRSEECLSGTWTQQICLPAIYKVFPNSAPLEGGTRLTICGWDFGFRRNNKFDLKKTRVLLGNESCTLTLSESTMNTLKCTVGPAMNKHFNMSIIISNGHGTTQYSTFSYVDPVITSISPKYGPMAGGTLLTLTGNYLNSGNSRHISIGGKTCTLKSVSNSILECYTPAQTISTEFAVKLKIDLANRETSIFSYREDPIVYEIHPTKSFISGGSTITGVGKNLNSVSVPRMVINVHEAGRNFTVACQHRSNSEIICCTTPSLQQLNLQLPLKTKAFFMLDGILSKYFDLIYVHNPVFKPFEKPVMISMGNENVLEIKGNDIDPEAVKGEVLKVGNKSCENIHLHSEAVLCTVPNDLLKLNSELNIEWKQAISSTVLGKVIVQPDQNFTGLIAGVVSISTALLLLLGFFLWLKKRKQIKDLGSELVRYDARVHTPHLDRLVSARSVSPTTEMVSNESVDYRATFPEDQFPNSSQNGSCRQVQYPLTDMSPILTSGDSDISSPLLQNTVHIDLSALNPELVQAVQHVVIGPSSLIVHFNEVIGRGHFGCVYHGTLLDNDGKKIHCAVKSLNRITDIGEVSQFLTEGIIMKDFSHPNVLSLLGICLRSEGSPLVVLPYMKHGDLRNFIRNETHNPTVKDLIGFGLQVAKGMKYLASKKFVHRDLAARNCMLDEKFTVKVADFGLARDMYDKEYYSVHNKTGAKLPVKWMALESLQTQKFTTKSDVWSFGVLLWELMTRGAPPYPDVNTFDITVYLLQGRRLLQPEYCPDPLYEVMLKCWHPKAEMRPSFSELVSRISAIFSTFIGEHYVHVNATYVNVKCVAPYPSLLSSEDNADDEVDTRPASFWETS
Attribute: inhibition
endpoint: inhibition

- CS(=O)(=O)N1CCN(Cc2nc3c(N4CCOCC4)nc(-c4cnc(N)nc4)cn3n2)CC1: < 25%
- CS(=O)(=O)N1CCN(Cc2cc3c(N4CCOCC4)nc(-c4cnc(N)nc4)cn3n2)CC1: < 25%
- CS(=O)(=O)N1CCN(Cc2nc3c(N4CCOCC4)nc(-c4cnc(N)nc4)c(Cl)n3n2)CC1: < 25%
- CS(=O)(=O)N1CCN(Cc2cn3nc(-c4cnc(N)nc4)nc(N4CCOCC4)c3n2)CC1: < 25%

These measurements were taken from ChEMBL document CHEMBL4177600.
